- Test system: SK-MEL-5 melanoma
- Experiment Notes: NCI-60 one-dose screen, 48 h
- Settings: 10 µM unless noted
About 83,000 compounds went through this panel and 20% of them were active in at least one assay; those are over-represented in the sample as a whole. Activity calls are given as the source filed them. The calls were made as follows: active = growth percent below 10; inactive = the rest.
Classes used: Y = active, N = inactive

Compound: Cc1cc(Cl)cc(CN(Cc2ccccc2)Cc2c(O)ccc3ccccc23)c1O
Test Target: SK-MEL-5 melanoma
Group Label: N
//
Compound: COc1ccc(/C=C/C(=O)c2ccc(NC(=O)CSc3nnc(-c4ccc(OC)c(OC)c4)n3-c3ccccc3)cc2)cc1
Test Target: SK-MEL-5 melanoma
Group Label: N
//
Compound: c1cc(CNC23CC4CC(CC(C4)C2)C3)cc(C[N+](Cc2cccc(CNC34CC5CC(CC(C5)C3)C4)c2)(Cc2cccc(CNC34CC5CC(CC(C5)C3)C4)c2)Cc2cccc(CNC34CC5CC(CC(C5)C3)C4)c2)c1 (centres undefined)
Test Target: SK-MEL-5 melanoma
Group Label: N
//
Compound: C#CCN1C(=O)c2ccccc2N(CC#C)C12CCN(Cc1cn(CC(=O)Nc3ccccc3C(N)=O)nn1)CC2
Test Target: SK-MEL-5 melanoma
Group Label: N
//
Compound: COC(=O)/C=C1\SC(=Nc2ccc(F)cc2)N(CCc2c[nH]c3ccccc23)C1=O
Test Target: SK-MEL-5 melanoma
Group Label: N
//
Compound: COc1ccc(C(=O)c2cc(OC)c(OC)c(OC)c2)cc1OC(=O)CCl
Test Target: SK-MEL-5 melanoma
Group Label: Y
//
Compound: O=c1c2ccccc2n(CC(O)CN2CCCC2)c2c(Br)cccc12 (centres undefined)
Test Target: SK-MEL-5 melanoma
Group Label: N
//
Compound: Cc1ccc(C(=O)O)o1
Test Target: SK-MEL-5 melanoma
Group Label: N
//
Compound: C#C[C@@]1(O)[C@@H](CO)O[C@@H](n2cc(Cl)c3c(N)ccnc32)[C@@H]1O
Test Target: SK-MEL-5 melanoma
Group Label: N
//
Compound: COc1ccc(C(C)c2cc(OC)c(OC)c(OC)c2)cc1 (centres undefined)
Test Target: SK-MEL-5 melanoma
Group Label: Y
//
Compound: C=C1C(=O)O[C@H]2[C@H]1CC/C(COC(=O)c1cc3ccccc3o1)=C\CC[C@@]1(C)O[C@@H]21
Test Target: SK-MEL-5 melanoma
Group Label: Y
//
Compound: O=C1CC(c2ccc(O)c(O)c2)Oc2cc(O)c([C@@H]3O[C@H](CO)[C@@H](O)[C@H](O)[C@H]3O)c(O)c21 (some centres undefined)
Test Target: SK-MEL-5 melanoma
Group Label: N
//
Compound: O=C1CCC23OC(C(O)c4ccccc4N12)C1C(Br)=NOC13 (centres undefined)
Test Target: SK-MEL-5 melanoma
Group Label: N
//
Compound: CNc1cccc2c1C(=O)c1cccc(N)c1C2=O
Test Target: SK-MEL-5 melanoma
Group Label: N
